Answer each item with its documented activity at 25 µM.
Test system: M. mycetomatis genome strain MM55
Test: CLSI M38-A2 based in vitro susceptibility screening (XTT or resazurin), growth at fixed concentration
Assay type: cell-based, Madurella mycetomatis
Details: Madurella mycetomatis, 25 uM, mean of three replicates; read-out: Percentage survival at 25um, 25 uM mean
Field: numeric (%). Do not append units.

Query: Item: CC(C)(C)NC(=O)N[C@H](C(=O)N1C[C@H]2[C@@H]([C@H]1C(=O)NC(CC1CCC1)C(=O)C(N)=O)C2(C)C)C(C)(C)C (some centres unmarked) [MMV1580497] Test system: M. mycetomatis genome strain MM55 Read-out: activity at 25 µM Value: ?
Response: 88.1

Query: Item: O=C1CCC(N2C(=O)c3ccccc3C2=O)C(=O)N1 (centres unmarked) [MMV002612] Test system: M. mycetomatis genome strain MM55 Read-out: activity at 25 µM Value: ?
Response: 90.8

Query: Item: N#Cc1c(F)c(Cl)c(NCc2ccccc2)c(C#N)c1F [MMV1582496] Test system: M. mycetomatis genome strain MM55 Read-out: activity at 25 µM Value: ?
Response: 4.98

Query: Item: O=C1[C@H](CC[C@H](O)c2ccc(F)cc2)[C@@H](c2ccc(O)cc2)N1c1ccc(F)cc1 [MMV1581377] Test system: M. mycetomatis genome strain MM55 Read-out: activity at 25 µM Value: ?
Response: 91.9

Query: Item: COC1CC2CCC(C)C(O)(O2)C(=O)C(=O)N2CCCCC2C(=O)OC(C(C)CC2CCC(OCCO)C(OC)C2)CC(=O)C(C)/C=C(\C)C(O)C(OC)C(=O)C(C)CC(C)/C=C/C=C/C=C/1C (centres unmarked) [MMV639951] Test system: M. mycetomatis genome strain MM55 Read-out: activity at 25 µM Value: ?
Response: 61.4

Query: Item: O=S(=O)(Nc1ccc(O)cc1)c1cccc2cccnc12 [MMV251679] Test system: M. mycetomatis genome strain MM55 Read-out: activity at 25 µM Value: ?
Response: 86.4

Query: Item: NCc1ccc(S(N)(=O)=O)cc1 [MMV002665] Test system: M. mycetomatis genome strain MM55 Read-out: activity at 25 µM Value: ?
Response: 85.4

Query: Item: CC(C)c1cc2c(cc1S(=O)(=O)O)[C@@]1(C)CCC[C@@](C)(C(=O)O)[C@@H]1CC2 [MMV1633675] Test system: M. mycetomatis genome strain MM55 Read-out: activity at 25 µM Value: ?
Response: 79.3

Query: Item: OC[C@@H]1CC[C@H](n2cnc3c(O)ncnc32)O1 [MMV637306] Test system: M. mycetomatis genome strain MM55 Read-out: activity at 25 µM Value: ?
Response: 91.8

Query: Item: O=c1[nH]c(=O)n(Cc2cccc(Oc3ccccc3)c2)cc1Nc1ccccc1 [MMV1782107] Test system: M. mycetomatis genome strain MM55 Read-out: activity at 25 µM Value: ?
Response: 91.7

Query: Item: COc1ccc(C2CNC(=O)C2)cc1OC1CCCC1 (centres unmarked) [MMV003738] Test system: M. mycetomatis genome strain MM55 Read-out: activity at 25 µM Value: ?
Response: 84.1

Query: Item: NC(=O)c1[nH]c2ccc(S(N)(=O)=O)cc2c1-c1ccccc1 [MMV1581556] Test system: M. mycetomatis genome strain MM55 Read-out: activity at 25 µM Value: ?
Response: 72.4

Query: Item: CC(C)Cn1c(=O)n(C)c(=O)c2c(-c3cncn3C)n(Cc3cccc4ccccc34)nc21 [MMV1581559] Test system: M. mycetomatis genome strain MM55 Read-out: activity at 25 µM Value: ?
Response: 58.5

Query: Item: COc1nc2ccc(Br)cc2cc1[C@@H](c1ccccc1)[C@@](O)(CCN(C)C)c1cccc2ccccc12 [MMV689758] Test system: M. mycetomatis genome strain MM55 Read-out: activity at 25 µM Value: ?
Response: 98.1

Query: Item: Cc1nc2ccc(Oc3ccccc3)cc2c2c1CCN2CCc1ccccc1 [MMV1634399] Test system: M. mycetomatis genome strain MM55 Read-out: activity at 25 µM Value: ?
Response: 3.88

Query: Item: Nc1nc(O)c2ncn(COC(CO)CO)c2n1 [MMV001761] Test system: M. mycetomatis genome strain MM55 Read-out: activity at 25 µM Value: ?
Response: 69.6

Query: Item: CCOCc1nc2c(N)nc3ccccc3c2n1CC(C)(C)O [MMV690547] Test system: M. mycetomatis genome strain MM55 Read-out: activity at 25 µM Value: ?
Response: 98

Query: Item: Nc1nc2c(ncn2[C@@H]2O[C@H](CO)[C@@H](O)[C@H]2F)c(=O)[nH]1 [MMV1633677] Test system: M. mycetomatis genome strain MM55 Read-out: activity at 25 µM Value: ?
Response: 85.2

Query: Item: CCc1cc(O)c(Oc2ccc(C(N)=O)cc2F)cc1F [MMV1578564] Test system: M. mycetomatis genome strain MM55 Read-out: activity at 25 µM Value: ?
Response: 106

Query: Item: COc1ccc2c(c1OC)C(=O)OC2C1c2c(cc3c(c2OC)OCO3)CCN1C (centres unmarked) [MMV002780] Test system: M. mycetomatis genome strain MM55 Read-out: activity at 25 µM Value: ?
Response: 82

Query: Item: CCNC(=O)Nc1cn2c(-c3ncc(CC)cn3)cc(-c3cccnc3)cc2n1 [MMV1782403] Test system: M. mycetomatis genome strain MM55 Read-out: activity at 25 µM Value: ?
Response: 109

Query: Item: O=C(c1nc2c(C(F)(F)F)cc(C3CC3)cn2c1Cl)N1CCN([C@H]2CC[C@H](O)CC2)C(=O)C1 [MMV1634396] Test system: M. mycetomatis genome strain MM55 Read-out: activity at 25 µM Value: ?
Response: 94.9

Query: Item: O=S(=O)(NCB(O)O)c1ccc(-c2nnn[nH]2)cc1C(F)(F)F [MMV1782411] Test system: M. mycetomatis genome strain MM55 Read-out: activity at 25 µM Value: ?
Response: 83.9

Query: Item: Oc1ccc(NCc2ccccc2OCc2ccccc2)cc1 [MMV1580504] Test system: M. mycetomatis genome strain MM55 Read-out: activity at 25 µM Value: ?
Response: 81.4

Query: Item: N[C@@H]1CN(c2c(F)cc3c(=O)c(C(=O)O)cn([C@@H]4C[C@@H]4F)c3c2Cl)CC12CC2 [MMV1579850] Test system: M. mycetomatis genome strain MM55 Read-out: activity at 25 µM Value: ?
Response: 85.6

Query: Item: CCc1nc2ccc(Cl)cn2c1C(=O)NCc1ccc(N2CCC(c3ccc(OC(F)(F)F)cc3)CC2)cc1 [MMV687696] Test system: M. mycetomatis genome strain MM55 Read-out: activity at 25 µM Value: ?
Response: 93.6

Query: Item: CC1=C(/C=C/C(C)=C/C=C/C(C)=C/C(=O)Nc2ccc(O)cc2)C(C)(C)CCC1 [MMV001793] Test system: M. mycetomatis genome strain MM55 Read-out: activity at 25 µM Value: ?
Response: 68.1

Query: Item: CC(=O)N[C@H](C)C(=O)N[C@H](Cc1ccccc1)C(=O)O [MMV1580845] Test system: M. mycetomatis genome strain MM55 Read-out: activity at 25 µM Value: ?
Response: 87.9

Query: Item: NNC(=O)c1ccncc1 [MMV002169] Test system: M. mycetomatis genome strain MM55 Read-out: activity at 25 µM Value: ?
Response: 85.6

Query: Item: COc1ccc(NS(=O)(=O)c2ccc(Cl)s2)cn1 [MMV1580499] Test system: M. mycetomatis genome strain MM55 Read-out: activity at 25 µM Value: ?
Response: 85

Query: Item: Nc1ccc2oc(=O)ccc2c1I [MMV1581378] Test system: M. mycetomatis genome strain MM55 Read-out: activity at 25 µM Value: ?
Response: 80.5

Query: Item: O=C(O)[C@H]1C2CCC(CC2)[C@@H]1Nc1nc(-c2c[nH]c3ncc(F)cc23)ncc1F [MMV1593516] Test system: M. mycetomatis genome strain MM55 Read-out: activity at 25 µM Value: ?
Response: 97.3

Query: Item: COc1ccccc1NC(=O)c1ccccc1Sc1ccc([N+](=O)[O-])cc1 [MMV1580484] Test system: M. mycetomatis genome strain MM55 Read-out: activity at 25 µM Value: ?
Response: 65.2

Query: Item: Nc1nc(=O)c(Br)c(-c2cccc(Cl)c2)[nH]1 [MMV1645152] Test system: M. mycetomatis genome strain MM55 Read-out: activity at 25 µM Value: ?
Response: 84.5

Query: Item: Cc1cc(O)c2c(c1)C(=O)c1c(I)c(O)c(I)c(O)c1C2=O [MMV1581545] Test system: M. mycetomatis genome strain MM55 Read-out: activity at 25 µM Value: ?
Response: 12.4
